Assay: Dynamic light scattering of LNPs: Z-average diameter, number average diameter, PDI
Assay type: physicochemical
Details: LNP, sg:mRNA 1:1, N/P about 6, 50/9/38/3; Table 2, Experiments 2-20
measurementType: PDI

A selection of reference data follows.
• CCCCC/C=C\C/C=C\CCCCCCCC(=O)OCC(COC(=O)CCC(OCCCCCCCC)OCCCCCCCC)COC(=O)OCC1CCCN(C)C1 (stereo not shown) [Compound 53] = 0.040
• CCCCC/C=C\C/C=C\CCCCCCCC(=O)OCC(COC(=O)OCCCN(CC)CC)COC(=O)C(CCCCCC)CCCCCCCC (stereo not shown) [Compound 65] = 0.034

[I] CCCCCC/C=C\COC(=O)CCCCCCCC(=O)OCC(COC(=O)CCCC(=O)OC(CCCCCCCC)CCCCCCCC)COC(=O)OCCCN(CC)CC (stereo not shown) [Compound 86]
[II] CCCCC/C=C\C/C=C\CCCCCCCC(=O)OCC(COC(=O)CCC(OCCCCCCCC)OCCCCCCCC)COC(=O)OCCN(CC)CC (stereo not shown) [Compound 9]
[III] CCCCCCCCCCOC(=O)CCCCCCCC(=O)OCC(COC(=O)CCCC(=O)OC(CCCCCCCC)CCCCCCCC)COC(=O)OCCCN(CC)CC (stereo not shown) [Compound 77]
[IV] CCCCCC/C=C\COC(=O)CCCCCCCC(=O)OCC(COC(=O)CCC(OCCCCCCC)OCCCCCCC)COC(=O)OCCCN(CC)CC (stereo not shown) [Compound 84]
[V] CCCCCCCCOC(=O)CCCCCCCC(=O)OCC(COC(=O)CCC(OCCCCCCCC)OCCCCCCCC)COC(=O)OCCCN(CC)CC (stereo not shown) [Compound 58]
Exam item: Rank the items in ascending order with respect to PDI. Your reply should list the labels following the order given in the request.
Marked response: III, I, V, II, IV
(III: 0.006, I: 0.016, V: 0.029, II: 0.058, IV: 0.086)

[P] CCCCCCCCCCOC(=O)CCCCCCCCCC(=O)OCC(COC(=O)CCC(OCCCCCCCC)OCCCCCCCC)COC(=O)OCCCN(CC)CC (stereo not shown) [Compound 90]
[Q] CCCCC/C=C\C/C=C\CCCCCCCC(=O)OCC(COC(=O)CCC(OCCCCCCCC)OCCCCCCCC)COC(=O)NCCN(CC)CC (stereo not shown) [Compound 12]
Exam item: For this pair, P and Q , which shows a numerically higher PDI? Lab note: record the label of whichever item you select.
Marked response: P
(P: 0.017, Q: 0.007)
